target-under-test: TYK2 (Homo sapiens)
Sequence (P29597 whole entry): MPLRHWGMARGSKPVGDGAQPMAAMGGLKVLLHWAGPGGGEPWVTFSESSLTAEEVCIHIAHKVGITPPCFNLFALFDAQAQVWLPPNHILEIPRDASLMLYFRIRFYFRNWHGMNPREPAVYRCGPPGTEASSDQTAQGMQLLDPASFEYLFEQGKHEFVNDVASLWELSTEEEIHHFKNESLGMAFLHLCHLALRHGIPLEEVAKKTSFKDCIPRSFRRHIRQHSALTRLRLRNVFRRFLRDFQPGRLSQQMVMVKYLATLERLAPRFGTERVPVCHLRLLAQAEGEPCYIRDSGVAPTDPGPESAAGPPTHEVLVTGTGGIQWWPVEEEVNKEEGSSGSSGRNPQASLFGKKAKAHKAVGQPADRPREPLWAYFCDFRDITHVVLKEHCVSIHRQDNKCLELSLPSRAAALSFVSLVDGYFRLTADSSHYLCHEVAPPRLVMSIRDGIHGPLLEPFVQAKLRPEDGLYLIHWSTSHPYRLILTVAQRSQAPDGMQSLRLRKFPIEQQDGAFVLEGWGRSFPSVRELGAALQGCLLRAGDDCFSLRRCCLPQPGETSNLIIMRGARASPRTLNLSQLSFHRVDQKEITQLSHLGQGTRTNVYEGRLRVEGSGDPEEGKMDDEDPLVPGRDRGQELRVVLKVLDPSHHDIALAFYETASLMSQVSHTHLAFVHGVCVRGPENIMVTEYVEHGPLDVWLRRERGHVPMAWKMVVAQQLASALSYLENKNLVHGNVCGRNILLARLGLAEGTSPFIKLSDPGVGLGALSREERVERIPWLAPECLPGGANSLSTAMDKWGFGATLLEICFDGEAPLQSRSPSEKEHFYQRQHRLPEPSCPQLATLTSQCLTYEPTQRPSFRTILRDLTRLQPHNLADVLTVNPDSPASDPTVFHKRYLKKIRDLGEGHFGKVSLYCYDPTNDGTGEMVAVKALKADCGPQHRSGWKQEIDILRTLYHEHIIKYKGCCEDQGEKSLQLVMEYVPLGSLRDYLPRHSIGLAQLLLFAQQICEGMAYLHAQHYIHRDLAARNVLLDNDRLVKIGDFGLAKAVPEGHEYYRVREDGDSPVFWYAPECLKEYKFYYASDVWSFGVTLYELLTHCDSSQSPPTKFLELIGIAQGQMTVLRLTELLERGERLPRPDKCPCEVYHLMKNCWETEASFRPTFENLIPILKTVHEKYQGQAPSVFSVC
experiment-description: Biochemical potency on Tyk2, TR-FRET LANCE Ultra kinase assay (examples 1-99)
condition-notes: ATP at Km (12 μM), read-out: Tyk2 inhibitory activity (pIC50 class) (converted)
readout-kind: IC50

Recorded IC50 for CN(C)[C@H]1C[C@@H](NC(=O)c2nn(-c3cc(Cl)ccc3OC(F)F)c3cc(-c4cnn5cccnc45)ncc23)C1 with TYK2 (Homo sapiens), please?
> 50.1 nM

Ok, now CNc1nn(-c2cc(S(C)(=O)=O)ccc2OC)c2cc(-c3cnn4cccnc34)ncc12
> 50.1 nM

Ok, now COc1ccc(Cl)cc1-n1nc(OC)c2cnc(-c3cnn4cccnc34)cc21
5.01 to 50.1 nM

Ok, now COc1ccc(C(F)F)cc1-n1nc(C)c2cnc(-c3cnn4cccnc34)cc21
5.01 to 50.1 nM

Ok, now COc1cccc(S(=O)(=O)c2ccc(OC(F)F)c(-n3nc(C)c4cnc(-c5cnn6cccnc56)cc43)c2)c1
5.01 to 50.1 nM

Ok, now COc1ccc(Cl)cc1-n1nc(C(=O)N[C@H]2C[C@H](N(C)C)C2)c2cnc(-c3cnn4cccnc34)cc21
5.01 to 50.1 nM

Ok, now COc1ccc(C(F)(F)F)cc1-n1nc(C)c2cnc(-c3cnn4cccnc34)cc21
> 50.1 nM

Ok, now COc1ccc(Cl)cc1-n1nc(N2CCN(C(C)=O)CC2)c2cnc(-c3cnn4cccnc34)cc21
> 50.1 nM

Ok, now Cc1nn(-c2cc(S(=O)(=O)CC(N)=O)ccc2OC(F)F)c2cc(-c3cnn4cccnc34)ncc12
> 50.1 nM

Ok, now COc1ccc(F)cc1-n1nc(C(=O)NCCCN(C)C)c2cnc(-c3cnn4cccnc34)cc21
> 50.1 nM

Ok, now Cc1nn(-c2cc(SC3CC3)ccc2OC(F)F)c2cc(-c3cnn4cccnc34)ncc12
> 50.1 nM

Ok, now Cc1nn(-c2cc(C#N)ccc2OC(F)F)c2cc(-c3cnn4cccnc34)ncc12
5.01 to 50.1 nM

Ok, now CNC(=O)CN(C)[C@H]1C[C@H](NC(=O)c2nn(-c3cc(Cl)ccc3OC)c3cc(-c4cnn5cccnc45)ncc23)C1
> 50.1 nM

Ok, now NC1CN(Cc2nn(-c3cc(Cl)ccc3OC(F)F)c3cc(-c4cnn5cccnc45)ncc23)C1
> 50.1 nM

Ok, now COc1ccc(S(C)(=O)=O)cc1-n1nc(NCCN2CCOCC2)c2cnc(-c3cnn4cccnc34)cc21
> 50.1 nM

Ok, now COc1ccc(Cl)cc1-n1nc(C(=O)N[C@H]2C[C@H](N3CCOCC3)C2)c2cnc(-c3cnn4cccnc34)cc21
> 50.1 nM

Ok, now COc1ccc(Cl)cc1-n1nc(N2CC(CO)C2)c2cnc(-c3cnn4cccnc34)cc21
5.01 to 50.1 nM

Ok, now COc1ccc(Cl)cc1-n1nc(N(C)C)c2cnc(-c3cnn4cccnc34)cc21
5.01 to 50.1 nM

Ok, now Cc1nn(-c2cc(SC3CCNCC3)ccc2OC(F)F)c2cc(-c3cnn4cccnc34)ncc12
> 50.1 nM

Ok, now COc1ccc(Cl)cc1-n1ncc2c(N(C)C)nc(-c3cnn4cccnc34)cc21
> 50.1 nM

Ok, now COc1ccc(Cl)cc1-n1nc(C(=O)N[C@H]2C[C@H](N)C2)c2cnc(-c3cnn4cccnc34)cc21
5.01 to 50.1 nM

Ok, now COc1ccc(S(=O)(=O)NCCN2CCN(C)CC2)cc1-n1nc(C)c2cnc(-c3cnn4cccnc34)cc21
> 50.1 nM

Ok, now COc1ccc(S(=O)(=O)NCCO)cc1-n1nc(C)c2cnc(Nc3ncc[nH]c3=O)cc21
> 50.1 nM

Ok, now COc1ccc(S(C)(=O)=O)cc1-n1nc(C(=O)NCCCN2CCOCC2)c2cnc(-c3cnn4cccnc34)cc21
> 50.1 nM

Ok, now COc1ccc(S(=O)(=O)NCCO)cc1-n1nc(C)c2cnc(-c3cnn4cccnc34)cc21
> 50.1 nM

Ok, now Cc1nn(-c2cc(SC3COC3)ccc2OC(F)F)c2cc(-c3cnn4cccnc34)ncc12
5.01 to 50.1 nM

Ok, now COc1ccc(S(=O)(=O)CCCO)cc1-n1nc(C)c2cnc(-c3cnn4cccnc34)cc21
> 50.1 nM

Ok, now COc1cc(O)c(F)cc1-n1nc(C)c2cnc(-c3cnn4cccnc34)cc21
5.01 to 50.1 nM

Ok, now COc1ccc(Cl)cc1-n1ncc2c(O)nc(-c3cnn4cccnc34)cc21
5.01 to 50.1 nM

Ok, now COc1ccc(C)cc1-n1nc(NCCN(C)C)c2cnc(-c3cnn4cccnc34)cc21
> 50.1 nM

Ok, now CNC(=O)CSc1ccc(OC(F)F)c(-n2nc(C)c3cnc(-c4cnn5cccnc45)cc32)c1
> 50.1 nM

###

target-under-test: JAK 3 (Homo sapiens)
Sequence (P52333 whole entry): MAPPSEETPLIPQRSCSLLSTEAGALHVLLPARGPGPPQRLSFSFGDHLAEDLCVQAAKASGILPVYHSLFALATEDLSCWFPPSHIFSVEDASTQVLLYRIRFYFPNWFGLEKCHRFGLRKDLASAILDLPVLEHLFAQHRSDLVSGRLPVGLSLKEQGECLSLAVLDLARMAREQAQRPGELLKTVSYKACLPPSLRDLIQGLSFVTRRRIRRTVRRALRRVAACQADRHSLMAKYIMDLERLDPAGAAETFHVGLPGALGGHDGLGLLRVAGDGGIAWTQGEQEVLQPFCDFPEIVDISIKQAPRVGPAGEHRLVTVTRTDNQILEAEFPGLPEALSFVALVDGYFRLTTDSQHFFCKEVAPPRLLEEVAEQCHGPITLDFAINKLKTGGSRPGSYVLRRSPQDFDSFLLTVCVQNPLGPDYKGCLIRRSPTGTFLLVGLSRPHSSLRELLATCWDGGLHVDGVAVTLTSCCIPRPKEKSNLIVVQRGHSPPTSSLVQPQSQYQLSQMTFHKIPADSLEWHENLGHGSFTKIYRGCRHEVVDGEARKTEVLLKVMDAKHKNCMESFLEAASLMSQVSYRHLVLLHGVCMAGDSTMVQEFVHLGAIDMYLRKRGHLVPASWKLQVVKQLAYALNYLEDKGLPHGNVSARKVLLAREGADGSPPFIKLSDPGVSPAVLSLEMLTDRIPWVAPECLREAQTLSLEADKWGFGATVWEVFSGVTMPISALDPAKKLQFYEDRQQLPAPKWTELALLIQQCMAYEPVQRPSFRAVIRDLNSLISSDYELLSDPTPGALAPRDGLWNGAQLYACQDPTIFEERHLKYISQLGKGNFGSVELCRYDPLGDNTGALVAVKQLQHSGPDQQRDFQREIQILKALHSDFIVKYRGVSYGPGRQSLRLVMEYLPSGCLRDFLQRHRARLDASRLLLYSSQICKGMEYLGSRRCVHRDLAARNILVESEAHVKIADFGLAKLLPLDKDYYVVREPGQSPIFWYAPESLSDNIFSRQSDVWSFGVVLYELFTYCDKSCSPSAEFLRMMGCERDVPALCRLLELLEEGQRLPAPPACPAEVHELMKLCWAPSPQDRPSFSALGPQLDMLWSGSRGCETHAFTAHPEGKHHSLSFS
experiment-description: Biochemical potency on JAK3, TR-FRET LANCE Ultra kinase assay (examples 1-99)
condition-notes: ATP at Km (0.2 μM), read-out: JAK3 inhibitory activity (pIC50 class) (converted)
readout-kind: IC50

Recorded IC50 for COc1cc(O)ccc1-n1nc(C)c2cnc(-c3cnn4cccnc34)cc21 [Example 27] with JAK 3 (Homo sapiens), please?
5.01 to 50.1 nM

Ok, now CSc1ccc(OC(F)F)c(-n2nc(C)c3cnc(-c4cnn5cccnc45)cc32)c1 [Example 13]
≤ 5.01 nM

Ok, now COc1cc(O)c(C)cc1-n1nc(C)c2cnc(-c3cnn4cccnc34)cc21 [Example 60]
≤ 5.01 nM

Ok, now CNC(=O)CN(C)[C@H]1C[C@H](NC(=O)c2nn(-c3cc(Cl)ccc3OC)c3cc(-c4cnn5cccnc45)ncc23)C1 [Example 78]
5.01 to 50.1 nM

Ok, now COc1ccc(S(=O)(=O)NCCCN2CCN(C)CC2)cc1-n1nc(C)c2cnc(-c3cnn4cccnc34)cc21 [Example 16]
> 50.1 nM

Ok, now COc1ccc(S(=O)(=O)NCC2CN(C)C2)cc1-n1nc(C)c2cnc(-c3cnn4cccnc34)cc21 [Example 17]
> 50.1 nM

Ok, now Cc1nn(-c2cc(C#N)ccc2OC(F)F)c2cc(-c3cnn4cccnc34)ncc12 [Example 64]
≤ 5.01 nM

Ok, now COc1ccc(Cl)cc1-n1ncc2c(O)nc(-c3cnn4cccnc34)cc21 [Example 57]
5.01 to 50.1 nM

Ok, now CNC(=O)CSc1ccc(OC(F)F)c(-n2nc(C)c3cnc(-c4cnn5cccnc45)cc32)c1 [Example 67]
5.01 to 50.1 nM

Ok, now COc1ccc(C(F)(F)F)cc1-n1nc(C)c2cnc(-c3cnn4cccnc34)cc21 [Example 4]
5.01 to 50.1 nM

Ok, now Cc1nn(-c2cc(SCC(=O)NCCO)ccc2OC(F)F)c2cc(-c3cnn4cccnc34)ncc12 [Example 69]
5.01 to 50.1 nM

Ok, now Cc1nn(-c2cc(SCC(N)=O)ccc2OC(F)F)c2cc(-c3cnn4cccnc34)ncc12 [Example 68]
≤ 5.01 nM

Ok, now COc1ccc(C(F)F)cc1-n1nc(C)c2cnc(Nc3ncc[nH]c3=O)cc21 [Example 91]
≤ 5.01 nM

Ok, now COc1cnc(Cl)cc1-n1nc(C)c2cnc(-c3cnn4cccnc34)cc21 [Example 61]
5.01 to 50.1 nM

Ok, now CNc1nc(-c2cnn3cccnc23)cc2c1cnn2-c1cc(Cl)ccc1OC [Example 52]
> 50.1 nM

Ok, now COc1ccc(Cl)cc1-n1ncc2c(NC(C)=O)nc(-c3cnn4cccnc34)cc21 [Example 55]
> 50.1 nM

Ok, now Cc1nn(-c2cc(Br)ccc2OC(F)F)c2cc(-c3cnn4cccnc34)ncc12 [Example 63]
≤ 5.01 nM

###

Exercise: state measured IC50 for each of the compounds provided.
target-under-test: JAK 2 (Homo sapiens, UniProt O60674)
Sequence (O60674 whole entry): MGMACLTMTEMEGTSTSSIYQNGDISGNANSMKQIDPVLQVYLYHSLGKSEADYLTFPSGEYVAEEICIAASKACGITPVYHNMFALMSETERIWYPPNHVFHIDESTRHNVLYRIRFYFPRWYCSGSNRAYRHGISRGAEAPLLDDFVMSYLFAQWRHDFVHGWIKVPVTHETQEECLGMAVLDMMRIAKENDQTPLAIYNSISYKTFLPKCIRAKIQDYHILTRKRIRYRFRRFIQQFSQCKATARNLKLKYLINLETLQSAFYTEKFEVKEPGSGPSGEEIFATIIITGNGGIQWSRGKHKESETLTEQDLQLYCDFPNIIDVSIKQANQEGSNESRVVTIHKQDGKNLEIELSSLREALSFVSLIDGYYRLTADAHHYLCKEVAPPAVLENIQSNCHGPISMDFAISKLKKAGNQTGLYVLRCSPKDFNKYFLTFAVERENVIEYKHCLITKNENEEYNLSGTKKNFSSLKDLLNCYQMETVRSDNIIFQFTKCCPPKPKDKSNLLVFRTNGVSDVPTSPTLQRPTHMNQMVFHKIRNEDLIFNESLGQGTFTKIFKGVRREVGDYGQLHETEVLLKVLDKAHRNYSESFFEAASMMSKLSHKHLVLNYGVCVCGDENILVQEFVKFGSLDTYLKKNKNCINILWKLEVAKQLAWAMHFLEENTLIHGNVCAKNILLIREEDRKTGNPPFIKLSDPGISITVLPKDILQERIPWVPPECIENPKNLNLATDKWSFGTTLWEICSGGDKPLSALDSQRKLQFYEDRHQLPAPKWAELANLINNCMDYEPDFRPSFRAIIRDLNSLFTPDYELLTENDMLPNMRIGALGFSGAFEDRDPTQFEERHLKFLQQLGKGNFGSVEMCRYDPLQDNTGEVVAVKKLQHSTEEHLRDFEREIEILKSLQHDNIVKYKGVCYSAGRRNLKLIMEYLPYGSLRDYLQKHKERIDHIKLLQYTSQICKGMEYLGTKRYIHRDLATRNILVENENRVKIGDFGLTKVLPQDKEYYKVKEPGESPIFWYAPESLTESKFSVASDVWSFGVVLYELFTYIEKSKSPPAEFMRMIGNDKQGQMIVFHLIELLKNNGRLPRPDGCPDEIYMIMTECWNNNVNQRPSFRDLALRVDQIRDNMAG
experiment-description: Biochemical potency on JAK2, TR-FRET LANCE Ultra kinase assay (examples 1-99)
condition-notes: ATP at Km (0.7 μM), read-out: JAK2 inhibitory activity (pIC50 class) (converted)

Record request: IC50 value, item CNS(=O)(=O)c1ccc(OC)c(-n2nc(C)c3cnc(-c4cnn5cccnc45)cc32)c1
≤ 5.01 nM

Ok, now Cc1nn(-c2cc(S(=O)(=O)CCCN(C)C)ccc2OC(F)F)c2cc(-c3cnn4cccnc34)ncc12
5.01 to 50.1 nM

Ok, now COc1ccc(S(C)(=O)=O)cc1-n1nc(C(=O)NCCCN(C)C)c2cnc(-c3cnn4cccnc34)cc21
5.01 to 50.1 nM

Ok, now COc1cnc(Cl)cc1-n1nc(C)c2cnc(-c3cnn4cccnc34)cc21
5.01 to 50.1 nM

Ok, now COc1cccc(S(=O)(=O)c2ccc(OC(F)F)c(-n3nc(C)c4cnc(-c5cnn6cccnc56)cc43)c2)c1
≤ 5.01 nM

Ok, now COCCS(=O)(=O)c1ccc(OC(F)F)c(-n2nc(C)c3cnc(-c4cnn5cccnc45)cc32)c1
≤ 5.01 nM

Ok, now COc1ccc(Cl)cc1-n1nc(NC(C)=O)c2cnc(-c3cnn4cccnc34)cc21
≤ 5.01 nM

Ok, now COc1ccc(S(=O)(=O)NCCO)cc1-n1nc(C)c2cnc(Nc3ncc[nH]c3=O)cc21
≤ 5.01 nM

Ok, now Cc1nn(-c2cc(S(=O)(=O)CC(N)=O)ccc2OC(F)F)c2cc(-c3cnn4cccnc34)ncc12
≤ 5.01 nM

Ok, now CC(=O)N1CCC(S(=O)(=O)c2ccc(OC(F)F)c(-n3nc(C)c4cnc(-c5cnn6cccnc56)cc43)c2)C1 (stereo not shown)
≤ 5.01 nM

Ok, now COc1ccc(F)cc1-n1nc(C)c2cnc(-c3cnn4cccnc34)cc21
≤ 5.01 nM

Ok, now Cc1nn(-c2cc(S(C)(=O)=O)ccc2OC(F)F)c2cc(-c3cnn4cccnc34)ncc12
≤ 5.01 nM

Ok, now COc1ccc(C(F)F)cc1-n1nc(NCCN(C)C)c2cnc(-c3cnn4cccnc34)cc21
≤ 5.01 nM

Ok, now COc1ccc(S(=O)(=O)NCCO)cc1-n1nc(C)c2cnc(-c3cnn4cccnc34)cc21
≤ 5.01 nM

Ok, now COCCS(=O)(=O)c1ccc(OC(F)F)c(-n2nc(C)c3cnc(Nc4ncc[nH]c4=O)cc32)c1
≤ 5.01 nM

Ok, now Cc1nn(-c2cc(S(=O)(=O)CCO)ccc2OC(F)F)c2cc(-c3cnn4cccnc34)ncc12
≤ 5.01 nM
